- studyTarget: MERTK (UniProt Q12866)
- Sequence (Q12866 whole entry, looked up): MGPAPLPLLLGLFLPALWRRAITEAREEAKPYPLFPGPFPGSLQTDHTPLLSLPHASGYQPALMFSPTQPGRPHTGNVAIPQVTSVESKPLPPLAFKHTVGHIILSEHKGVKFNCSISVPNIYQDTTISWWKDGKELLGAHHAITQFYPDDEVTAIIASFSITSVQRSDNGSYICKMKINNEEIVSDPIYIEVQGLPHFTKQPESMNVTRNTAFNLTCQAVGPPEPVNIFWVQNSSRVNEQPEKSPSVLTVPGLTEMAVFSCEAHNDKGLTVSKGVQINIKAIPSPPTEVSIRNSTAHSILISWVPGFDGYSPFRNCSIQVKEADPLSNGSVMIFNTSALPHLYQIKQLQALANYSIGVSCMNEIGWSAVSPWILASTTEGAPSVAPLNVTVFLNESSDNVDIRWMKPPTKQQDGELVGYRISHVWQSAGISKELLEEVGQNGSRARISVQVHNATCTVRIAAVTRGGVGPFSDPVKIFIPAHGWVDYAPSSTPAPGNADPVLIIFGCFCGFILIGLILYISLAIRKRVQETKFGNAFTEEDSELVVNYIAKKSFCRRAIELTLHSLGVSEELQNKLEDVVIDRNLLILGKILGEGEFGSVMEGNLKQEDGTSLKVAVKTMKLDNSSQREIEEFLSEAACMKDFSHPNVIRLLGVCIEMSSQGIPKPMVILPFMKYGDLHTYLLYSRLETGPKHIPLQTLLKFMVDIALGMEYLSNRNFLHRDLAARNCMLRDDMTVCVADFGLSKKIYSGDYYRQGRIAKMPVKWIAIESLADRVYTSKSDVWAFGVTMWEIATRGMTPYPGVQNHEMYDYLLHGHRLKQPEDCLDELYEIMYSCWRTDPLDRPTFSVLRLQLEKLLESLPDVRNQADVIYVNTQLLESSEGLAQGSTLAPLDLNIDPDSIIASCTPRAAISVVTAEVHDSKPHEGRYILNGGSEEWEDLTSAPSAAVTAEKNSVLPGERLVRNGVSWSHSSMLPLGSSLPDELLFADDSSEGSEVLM
- assayProtocol: phosphorylation enrichment, bacterial display (enrichment ratio); higher = better substrate or ligand; peptides without Tyr show the background
I'd appreciate it if you could supply phosphorylation enrichment values for the items below.
Answers are plain numbers.

WLFFRYLPIGC [ATP2A2_Y836_A838P] | 0.415
VEKEKYVSFIS [JMJD1C_Y596_M591V_YF] | 0.408
RSHLPYDVTPE [IQGAP3_Y1098] | 1
ALVDTYCRHNF [HLA-DRB1_Y107_A103L_YF] | 0.549
RAADYYSQQMA [GBP6_Y334] | 0.39

Record phosphorylation enrichment for all entries; do not skip any.
1. NQLNDYIFSFD [RARS1_Y516_R512Q]
2. LIFTNYEVGKD [GSTP1_Y112_A114V_YF]

A.
1. 0.46
2. 0.983

Record phosphorylation enrichment for all entries; do not skip any.
1. PSELFYSKIGP [SMG1_Y2254_YF]
2. CTTIHQNYMCN [TP53_Y234_Y234Q]
3. RILENYGADID [DNAH5_Y596_L591R]
4. ALETLYKKAVK [CC2D2A_Y381_E376A]
5. NRLTDYYELLL [BBS10_Y536_P539L]

A.
[15.5, 0.503, 0.51, 0.338, 3.04]

What the record says about EEVKAYLDFGE [CHAC2_Y78_R82G] : phosphorylation enrichment is 0.422

* * *

- Tested on: c-Src
- assayProtocol: phosphorylation enrichment, bacterial display (enrichment ratio); higher = better substrate or ligand; peptides without Tyr show the background
experimentalEndpoint: phosphorylation enrichment
Give bare numbers.

Reference set, count: 6
SVVVPYQPPEV [TP53_Y220_E221Q] | 0.44
QFFQGYFNNNF [ZNF236_Y644_S643G] | 0.721
SVVVPYEPHEV [TP53_Y220_P223H] | 0.513
YRTPGYREVVI [TNS2_Y673_A670T] | 0.465
SHEELYKWFTS [DYNC1H1_Y3051] | 1.55
CTTVHYNYMCN [TP53_Y234_I232V] | 0.492

Record phosphorylation enrichment for all entries; do not skip any.
1. GRRGQYVMLSE [TTC7A_Y396]
2. EFGEVYKGMLK [EPHA2_Y628]
3. HNLDFYKKTTN [FGFR3_Y648_YF]
4. ELPQTYCVSGP [DYSF_Y1684_G1679E]
5. FRSSLYLLMET [MYO5C_Y633]
6. CDTKLYTSAPN [DNTTIP2_Y427]

A.
1: 0.549; 2: 0.481; 3: 2.23; 4: 0.641; 5: 0.521; 6: 0.65

Record phosphorylation enrichment for all entries; do not skip any.
1. LADKPYTFEDY [FXN_Y118]
2. EQSGSYIWVPA [DLG1_Y895]

A.
1: 6.91; 2: 0.511

* * *

- studyTarget: Grb2 SH2 (UniProt P62993)
- Sequence (P62993 whole entry, looked up): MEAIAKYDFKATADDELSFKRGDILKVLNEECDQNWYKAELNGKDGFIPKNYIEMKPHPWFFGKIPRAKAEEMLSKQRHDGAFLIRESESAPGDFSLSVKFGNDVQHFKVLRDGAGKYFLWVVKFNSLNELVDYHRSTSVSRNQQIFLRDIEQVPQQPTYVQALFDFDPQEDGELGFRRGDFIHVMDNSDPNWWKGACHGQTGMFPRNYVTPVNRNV
- assayProtocol: SH2 binding enrichment of the phosphorylated peptide, bacterial display (enrichment ratio); higher = better substrate or ligand; peptides without Tyr show the background
I'd appreciate it if you could supply SH2 binding enrichment values for the items below.
Answers are plain numbers.

Reference set, count: 6
SSVKPYRVFCD [FGB_Y266_YF] | 1.11
IVEELYAIPPD [PEAK1_Y797_S792I] | 0.88
ATHRSYDSDNP [MMUT_Y146_G145S] | 1.07
FAELVYTSFWH [ASS1_Y322_G324S] | 0.907
NPQKSCFIRLF [WAS_Y83_Y83C_YF] | 0.862
QLPRGYISILV [BAG3_Y205_P209L] | 1.04

API: the following record is the query input.
Tested on Grb2 SH2 (UniProt P62993): IAINKYEVSLI [MYO7A_Y2136_G2137E] . Observed SH2 binding enrichment: 0.805
